Experiment: Pharmacokinetics of zhangnan-5 in mice
Assay type: in vivo
Conditions: both sexes, BlebC, mouse, oral, 100 mg/kg single dose, plasma, average +/− standard deviation
Property Measured: Cmax (µM)
Supply the numeric figure in µM, leaving out any unit text.

(Q) Given the entry C=C(C)C1CCC2(C(=O)O)CCC3(C)C(CCC4C5(C)CCC(=O)C(C)(CO)C5CCC43C)C12 (stereo not shown) , report its measured Cmax.
(A) 65

###

System: CCL-247
Assay: MTT cytotoxicity, human tumor cell strain
Type: cell-based
Details: CCL-247, Colo, 72 hours
Property Measured: pEC50
// pEC50 here means minus log10 of the molar concentration (mol/L)

Recorded pEC50, per entry:
Compound	pEC50
C=C(C)C1CCC2(C(=O)O)CCC3(C)C(CCC4C5(C)CCC(=O)C(C)(CO)C5CCC43C)C12 (stereo not drawn) [zhangnan-5]	6.28
CC(C)C1CCC2(C(=O)O)CCC3(C)C(CCC4C5(C)CCC(O)C(C)(CO)C5CCC43C)C12 (stereo not drawn) [zhangnan-8, 23-hydroxyl-dihydrobetulinic acid]	5.09

# next compound below
(Q) Given the entry CC(C)C1CCC2(C(=O)O)CCC3(C)C(CCC4C5(C)CCC(=O)C(C)(CO)C5CCC43C)C12 (stereo not drawn) [zhangnan-7] , report its measured pEC50.
(A) 4.81

###

Assay: Pharmacokinetics of zhangnan-5 in mice
Type: in vivo
Conditions: both sexes, BlebC, mouse, oral, 100 mg/kg single dose, plasma, average +/− standard deviation
Property Measured: Tmax

(Q) Given the entry C=C(C)C1CCC2(C(=O)O)CCC3(C)C(CCC4C5(C)CCC(=O)C(C)(CO)C5CCC43C)C12 (stereo not shown) , report its measured Tmax.
(A) 1.42 h

###

System: Caki-1
Assay: MTT cytotoxicity, human tumor cell strain
Format: cell-based
Settings: Caki-1, Kidney, 72 hours
Property Measured: EC50 (µM)
Supply the numeric figure in µM, leaving out any unit text.

Compound	Tested System	EC50, µM
CC(C)C1CCC2(C(=O)O)CCC3(C)C(CCC4C5(C)CCC(O)C(C)(CO)C5CCC43C)C12 (stereo not drawn) [zhangnan-8, 23-hydroxyl-dihydrobetulinic acid]	Caki-1	9.2

(Q) Given the entry CC(C)C1CCC2(C(=O)O)CCC3(C)C(CCC4C5(C)CCC(=O)C(C)(CO)C5CCC43C)C12 (stereo not drawn) , what EC50 was observed with Caki-1?
(A) 20.1

(Q) Given the entry C=C(C)C1CCC2(C(=O)O)CCC3(C)C(CCC4C5(C)CCC(=O)C(C)(CO)C5CCC43C)C12 (stereo not drawn) , what EC50 was observed with Caki-1?
(A) 0.98

###

Some molecules, each annotated with its measured pEC50.
System: NCI-H23
Test: MTT cytotoxicity, human tumor cell strain
Type: cell-based
Settings: NCI-H23, Lung, 72 hours
// pEC50 here means minus log10 of the molar concentration (mol/L)

Molecule	Tested System	pEC50
C=C(C)C1CCC2(C(=O)O)CCC3(C)C(CCC4C5(C)CCC(=O)C(C)(CO)C5CCC43C)C12 (stereo not drawn)	NCI-H23	6.49
CC(C)C1CCC2(C(=O)O)CCC3(C)C(CCC4C5(C)CCC(O)C(C)(CO)C5CCC43C)C12 (stereo not drawn) [zhangnan-8, 23-hydroxyl-dihydrobetulinic acid]	NCI-H23	5.17

# next molecule below
(Q) Given the entry CC(C)C1CCC2(C(=O)O)CCC3(C)C(CCC4C5(C)CCC(=O)C(C)(CO)C5CCC43C)C12 (stereo not drawn) , report its measured pEC50.
(A) 4.89
